Origin of values: paper PMC10341549

As an illustration, consider measured pIC50 for compounds on h15-LOX-1 (Homo sapiens).
pIC50: −log10 of the molar value.

CCCCC/C=C\C/C=C\C/C=C\C/C=C\CCCC(=O)SCCNC(=O)CCNC(=O)[C@H](O)C(C)(C)COP(=O)(O)OP(=O)(O)OC[C@H]1O[C@@H](n2cnc3c(N)ncnc32)[C@H](O)[C@@H]1OP(=O)(O)O: < 3.30

// switching to the query compound
Req: Would you please give the reported pIC50 of CCCCC/C=C\C/C=C\C/C=C\CCCCC(=O)SCCNC(=O)CCNC(=O)[C@H](O)C(C)(C)COP(=O)(O)OP(=O)(O)OC[C@H]1O[C@@H](n2cnc3c(N)ncnc32)[C@H](O)[C@@H]1OP(=O)(O)O with h15-LOX-1 (Homo sapiens)?
Resp: < 3.30

====

Biological target: h15-LOX-2 (Homo sapiens, UniProt O15296)
Construct: His tag; made in house
Sequence (O15296 whole entry): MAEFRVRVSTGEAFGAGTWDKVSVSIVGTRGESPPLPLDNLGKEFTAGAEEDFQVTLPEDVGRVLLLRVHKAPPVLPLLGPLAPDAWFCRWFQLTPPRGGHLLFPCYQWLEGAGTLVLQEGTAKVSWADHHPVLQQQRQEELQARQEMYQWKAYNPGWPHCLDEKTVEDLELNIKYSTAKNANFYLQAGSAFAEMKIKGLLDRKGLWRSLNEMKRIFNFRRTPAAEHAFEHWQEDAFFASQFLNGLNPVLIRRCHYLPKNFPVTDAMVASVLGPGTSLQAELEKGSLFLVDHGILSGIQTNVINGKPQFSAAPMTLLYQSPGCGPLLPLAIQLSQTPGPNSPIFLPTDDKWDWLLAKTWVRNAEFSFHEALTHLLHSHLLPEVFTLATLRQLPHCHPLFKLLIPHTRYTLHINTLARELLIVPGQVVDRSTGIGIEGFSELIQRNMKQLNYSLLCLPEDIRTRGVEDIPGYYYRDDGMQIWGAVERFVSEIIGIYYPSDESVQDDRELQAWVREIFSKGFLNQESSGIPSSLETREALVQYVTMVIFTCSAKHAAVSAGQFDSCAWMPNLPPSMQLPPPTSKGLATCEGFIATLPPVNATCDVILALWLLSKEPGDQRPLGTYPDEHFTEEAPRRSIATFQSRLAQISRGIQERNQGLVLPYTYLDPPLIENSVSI
Assay: IC50 determination against h15-LOX-2
Assay type: biochemical
Conditions: 10 μM AA, 25 mM HEPES pH 7.5, 0.01% Triton X-100, 22 °C
pIC50: −log10 of the molar value.
measure: pIC50

Take a look at these entries with their results.
CC/C=C\C/C=C\C/C=C\CC/C=C\CCCCCCCC(=O)OC [methyl docosatetraenoate]: < 3.70
CC/C=C\C/C=C\C/C=C\CCCCCCCCCCCC(=O)OC [methyl 13(Z),16(Z),19(Z)-docosatrienoate]: < 3.70
CCCCC/C=C\C/C=C\C/C=C\CCCCC(=O)SCCNC(=O)CCNC(=O)[C@H](O)C(C)(C)COP(=O)(O)OP(=O)(O)OC[C@H]1O[C@@H](n2cnc3c(N)ncnc32)[C@H](O)[C@@H]1OP(=O)(O)O: < 3.30
CCCCCCCCCCCCCCCCCC(=O)SCCNC(=O)CCNC(=O)[C@H](O)C(C)(C)COP(=O)(O)OP(=O)(O)OC[C@H]1O[C@@H](n2cnc3c(N)ncnc32)[C@H](O)[C@@H]1OP(=O)(O)O: 5.12

Req: Give the measured pIC50 for CCCCCCCCCCCCCCCC(=O)SCCNC(=O)CCNC(=O)[C@H](O)C(C)(C)COP(=O)(O)OP(=O)(O)OC[C@H]1O[C@@H](n2cnc3c(N)ncnc32)[C@H](O)[C@@H]1OP(=O)(O)O
Resp: < 3.70

====

Molecular target: h15-LOX-2 (Homo sapiens)
Construct: His tag; made in house
Experiment: IC50 determination against h15-LOX-2
Format: biochemical
Conditions: 10 μM AA, 25 mM HEPES pH 7.5, 0.01% Triton X-100, 22 °C
Recorded IC50 for the following compounds

CCCCCCCC/C=C\CCCCCCCC(=O)SCCNC(=O)CCNC(=O)[C@H](O)C(C)(C)COP(=O)(O)OP(=O)(O)OC[C@H]1O[C@@H](n2cnc3c(N)ncnc32)[C@H](O)[C@@H]1OP(=O)(O)O [Oleoyl-CoA (18:1), oleoyl-coenzyme A (18:1)]: 0.62 µM

Req: For the compound CCCCC/C=C\C/C=C\CCCCCCCC(=O)SCCNC(=O)CCNC(=O)[C@H](O)C(C)(C)COP(=O)(O)OP(=O)(O)OC[C@H]1O[C@@H](n2cnc3c(N)ncnc32)[C@H](O)[C@@H]1OP(=O)(O)O [Linoleoyl-CoA (18:2), linoleoyl-CoA] , give its measured IC50 value.
Resp: > 100 µM

Req: Provide only the value of recorded IC50 for CC/C=C\C/C=C\C/C=C\C/C=C\C/C=C\C/C=C\CCC(=O)SCCNC(=O)CCNC(=O)C(O)C(C)(C)COP(=O)(O)OP(=O)(O)OC[C@H]1O[C@@H](n2cnc3c(N)ncnc32)[C@H](O)[C@@H]1OP(=O)(O)O (stereo partly drawn) [Docosahexaenoyl CoA (22:6), docosahexaenoyl-coenzyme A (22:6)]
Resp: > 500 µM

====

Biological target: h12-LOX (Homo sapiens)
Construct: His tag; made in house
Sequence (P18054 whole entry): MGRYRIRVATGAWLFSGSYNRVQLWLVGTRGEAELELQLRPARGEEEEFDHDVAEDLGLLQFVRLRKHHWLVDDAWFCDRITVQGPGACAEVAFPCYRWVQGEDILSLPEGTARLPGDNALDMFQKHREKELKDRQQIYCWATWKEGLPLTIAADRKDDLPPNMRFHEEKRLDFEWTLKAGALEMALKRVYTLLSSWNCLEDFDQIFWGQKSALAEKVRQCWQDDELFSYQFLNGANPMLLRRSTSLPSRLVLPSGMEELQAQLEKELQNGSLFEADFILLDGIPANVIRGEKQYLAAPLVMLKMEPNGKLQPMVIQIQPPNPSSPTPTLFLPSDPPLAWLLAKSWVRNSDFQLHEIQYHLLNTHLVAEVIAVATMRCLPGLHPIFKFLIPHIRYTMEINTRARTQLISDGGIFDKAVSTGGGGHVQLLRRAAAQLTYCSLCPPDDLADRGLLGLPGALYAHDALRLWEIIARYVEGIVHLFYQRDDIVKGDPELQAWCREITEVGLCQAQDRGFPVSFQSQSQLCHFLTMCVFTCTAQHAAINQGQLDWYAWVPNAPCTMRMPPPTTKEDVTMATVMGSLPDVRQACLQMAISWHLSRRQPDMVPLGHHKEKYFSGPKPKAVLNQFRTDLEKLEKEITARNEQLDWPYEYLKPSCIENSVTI
Test: IC50 determination against h12-LOX
Type: biochemical
Settings: methyl esters; 10 μM AA, pH 8.00; read-out: IC50 h12-LOX (methyl ester unsaturated fatty acids)
measure: IC50

CC/C=C\C/C=C\C/C=C\CC/C=C\CCCCCCCC(=O)OC [methyl docosatetraenoate]: > 200 µM
CCCCC/C=C\C/C=C\CCCCCCCCCCCC(=O)OC [methyl-13Z,16Z-docosadienoic, methyl-13Z,16Z-docosadienoic (22:2)]: > 200 µM

Here's the next entry for you.
Req: State its IC50: CC/C=C\C/C=C\C/C=C\CCCCCCCCCCCC(=O)OC [methyl 13(Z),16(Z),19(Z)-docosatrienoate]
Resp: > 200 µM

====

Target protein (sequence): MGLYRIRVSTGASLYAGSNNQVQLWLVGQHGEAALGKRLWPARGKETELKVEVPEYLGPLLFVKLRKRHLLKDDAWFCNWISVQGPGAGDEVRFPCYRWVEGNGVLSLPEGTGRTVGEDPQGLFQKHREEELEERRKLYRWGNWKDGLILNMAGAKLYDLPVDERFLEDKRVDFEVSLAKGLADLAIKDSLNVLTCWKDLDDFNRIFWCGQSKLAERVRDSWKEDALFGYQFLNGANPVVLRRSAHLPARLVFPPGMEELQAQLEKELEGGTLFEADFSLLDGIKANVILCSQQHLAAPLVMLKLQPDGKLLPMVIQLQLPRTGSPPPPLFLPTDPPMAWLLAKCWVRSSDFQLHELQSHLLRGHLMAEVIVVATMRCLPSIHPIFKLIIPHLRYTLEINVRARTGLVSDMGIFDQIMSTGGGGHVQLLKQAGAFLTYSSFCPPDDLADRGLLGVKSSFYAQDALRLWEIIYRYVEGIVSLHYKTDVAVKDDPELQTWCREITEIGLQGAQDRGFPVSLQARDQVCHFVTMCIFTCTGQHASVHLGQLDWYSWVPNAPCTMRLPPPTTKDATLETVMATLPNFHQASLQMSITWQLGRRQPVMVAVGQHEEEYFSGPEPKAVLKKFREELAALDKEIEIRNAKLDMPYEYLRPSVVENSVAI
We begin with a simple list: items and their reported IC50.

CC/C=C\C/C=C\C/C=C\CCCCCCCCCCCC(=O)OC [methyl 13(Z),16(Z),19(Z)-docosatrienoate]: > 200 µM
CCCCC/C=C\C/C=C\CCCCCCCCCCCC(=O)OC [methyl-13Z,16Z-docosadienoic, methyl-13Z,16Z-docosadienoic (22:2)]: > 200 µM

Req: Give reported IC50 value for CC/C=C\C/C=C\C/C=C\CC/C=C\CCCCCCCC(=O)OC [methyl docosatetraenoate]
Resp: > 200 µM

Req: Look up and state reported IC50 for CCCCCCCCCCCCCCCC(=O)SCCNC(=O)CCNC(=O)[C@H](O)C(C)(C)COP(=O)(O)OP(=O)(O)OC[C@H]1O[C@@H](n2cnc3c(N)ncnc32)[C@H](O)[C@@H]1OP(=O)(O)O [Palmitoyl-CoA (16:0), palmitoyl-coenzyme A (16:0)]
Resp: > 500 µM

====

Biological target: h15-LOX-2 (Homo sapiens, UniProt O15296)
Construct: His tag; made in house
Assay: IC50 determination against h15-LOX-2
Format: biochemical
Details: 10 μM AA, 25 mM HEPES pH 7.5, 0.01% Triton X-100, 22 °C
Quick reference for IC50 among some compounds

Some solved cases for reference:
CCCCC/C=C\C/C=C\CCCCCCCCCCCC(=O)OC [methyl-13Z,16Z-docosadienoic, methyl-13Z,16Z-docosadienoic (22:2)]: > 200 µM
CCCCCC/C=C\CCCCCCCC(=O)SCCNC(=O)CCNC(=O)[C@H](O)C(C)(C)COP(=O)(O)OP(=O)(O)OC[C@H]1O[C@@H](n2cnc3c(N)ncnc32)[C@H](O)[C@@H]1OP(=O)(O)O: > 200 µM

# next compound below
Req: // fetch IC50 given entry CCCCC/C=C\C/C=C\C/C=C\C/C=C\CCCC(=O)SCCNC(=O)CCNC(=O)[C@H](O)C(C)(C)COP(=O)(O)OP(=O)(O)OC[C@H]1O[C@@H](n2cnc3c(N)ncnc32)[C@H](O)[C@@H]1OP(=O)(O)O
Resp: > 500 µM
